# ASSAY TARGET: Glucose-dependent insulinotropic receptor (Homo sapiens) (UniProt Q8TDV5)
# Sequence (Q8TDV5 whole entry, looked up): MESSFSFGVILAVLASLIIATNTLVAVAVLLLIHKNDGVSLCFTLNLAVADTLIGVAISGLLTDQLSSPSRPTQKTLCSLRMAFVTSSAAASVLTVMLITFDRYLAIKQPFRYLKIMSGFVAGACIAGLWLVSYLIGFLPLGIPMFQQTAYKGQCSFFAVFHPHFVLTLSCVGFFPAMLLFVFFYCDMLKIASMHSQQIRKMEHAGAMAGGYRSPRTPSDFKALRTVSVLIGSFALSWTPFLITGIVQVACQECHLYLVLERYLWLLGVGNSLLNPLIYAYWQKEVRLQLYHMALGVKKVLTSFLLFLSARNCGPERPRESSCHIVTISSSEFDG
# ASSAY OVERVIEW: off-target GPR119 activation – cell-based, PathHunter beta-arrestin, luminescence, set 2, counter-screen for GPR151 activator project, confirmation (AID 1508607);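 also: 0% = median of sample wells and 100% = wells given EA reagent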
# DETAILS: GPR119 PathHunter beta-arrestin cells, 90 min, at 11.2 µM, hits give high values
In all, about 2,300 compounds went through this assay and about 20 (0.9%) were called active. This excerpt belongs to a sample that is enriched for actives.
As shown below, each of these molecules has a reported activation value.
The reply should contain only the number, in %.

>>> print(df.to_string())
                           smiles_string  reported_metric  numeric_value
0        CC(C)c1ccccc1OCC(=O)Nc1ccccc1Cl       activation           -0.8
1  COC(=O)c1ccccc1NC(=O)c1cc2ccccc2oc1=O       activation           2.29
2       CCCCNC(=O)c1ccc(C)c(N2CCCC2=O)c1       activation           0.14

[in] Look up activation with Glucose-dependent insulinotropic receptor (Homo sapiens) (UniProt Q8TDV5) for this molecule: CC(=O)N1CCC(N(C(=S)Nc2cccc(Cl)c2C)C(C)C)CC1
[out] -0.07

[in] Look up activation with Glucose-dependent insulinotropic receptor (Homo sapiens) (UniProt Q8TDV5) for this molecule: Cc1c(Cl)cccc1NS(=O)(=O)c1c(C(C)C)cc(C(C)C)cc1C(C)C
[out] 9.78

[in] Look up activation with Glucose-dependent insulinotropic receptor (Homo sapiens) (UniProt Q8TDV5) for this molecule: CCc1ccccc1NC(=O)Cn1nnc(C(=O)OC)c1C(=O)OC
[out] 3.17

----------
# ASSAY TARGET: Glucose-dependent insulinotropic receptor (Homo sapiens) (UniProt Q8TDV5)
# ASSAY OVERVIEW: off-target GPR119 activation – cell-based, PathHunter beta-arrestin, luminescence, set 2, counter-screen for GPR151 activator project, confirmation (AID 1508607);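 also: 0% = median of sample wells and 100% = wells given EA reagent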
# DETAILS: GPR119 PathHunter beta-arrestin cells, 90 min, at 11.2 µM, hits give high values
Hit rate of the full screen: of about 2,300 compounds, about 20 (0.9%) were called active. For the sample, actives were picked, then their nearest neighbours and some compounds at random.
REPORTED METRIC: activation (%)
The reply should contain only the number, in %.

                                   compound  reported_metric  numeric_value
0  COc1ccc(-n2ncc3c(Nc4cccc(F)c4)ncnc32)cc1       activation           2.73
1      COc1cc(NC(=O)c2onc(C)c2Cl)cc(OC)c1OC       activation          -1.44
2  CCCn1cc(SCC(=O)Nc2ccc(OC)cc2OC)c2ccccc21       activation           4.73
3  COc1ccc(C(=O)Nn2c(-c3ccc(F)cc3)nc3ccccc3c2=O)cc1Br       activation          -2.33
4  O=C(COc1ccc(Cl)cc1Cl)Nc1c2c(nn1-c1ccc(F)cc1)CSC2       activation           3.41
5  O=C(c1cccc(S(=O)(=O)N2CCOCC2)c1)N1CCCc2ccccc21       activation          -5.28

Below: the item to evaluate.
[in] Look up activation with Glucose-dependent insulinotropic receptor (Homo sapiens) (UniProt Q8TDV5) for this compound: Cc1ccc(C)c(N2CCN(C(=O)c3ccc(S(=O)(=O)c4ccc(Br)cc4)c([N+](=O)[O-])c3)CC2)c1
[out] 4.42

----------
# ASSAY TARGET: Glucose-dependent insulinotropic receptor (Homo sapiens)
# ASSAY OVERVIEW: off-target GPR119 activation – cell-based, PathHunter beta-arrestin, luminescence, set 2, counter-screen for GPR151 activator project, confirmation (AID 1508607);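 also: 0% = median of sample wells and 100% = wells given EA reagent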
# DETAILS: GPR119 PathHunter beta-arrestin cells, 90 min, at 11.2 µM, hits give high values
The campaign covered roughly 2,300 compounds. About 20 (0.9%) were called active. What follows is part of a selection rich in actives, with near analogues and random picks from the rest.
REPORTED METRIC: activation (%)
The reply should contain only the number, in %.

Example entries and their recorded answers appear below.
                                   molecule  reported_metric  numeric_value
0      CCCCCCCCCCCCCC/C(C(=O)O)=C(\C)C(=O)O       activation          -2.17
1  CCC(=O)Nc1ccc(NC(=O)CSc2nc3c(c(=O)n(C)c(=O)n3C)n2C)cc1       activation          -0.37
2  COc1ccc(CCn2c(-c3ccc(Cl)cc3)csc2=Nc2ccc(F)cc2)cc1OC       activation           0.18
3  O=C(CNc1ccccc1)N/N=C/c1cccc(Oc2ccccc2)c1       activation          -3.18

Below: the item to evaluate.
[in] Record request: activation value, item CCC(Sc1nc(NC2CCCCC2)c2ccccc2n1)C(=O)Nc1ccc2c(c1)OCO2 (stereo not given)
[out] 0.68

----------
As shown below, each of these compounds has a reported activation value.
# ASSAY TARGET: Glucose-dependent insulinotropic receptor (Homo sapiens)
# ASSAY OVERVIEW: off-target GPR119 activation – cell-based, PathHunter beta-arrestin, luminescence, set 2, counter-screen for GPR151 activator project, confirmation (AID 1508607);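 also: 0% = median of sample wells and 100% = wells given EA reagent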
# DETAILS: GPR119 PathHunter beta-arrestin cells, 90 min, at 11.2 µM, hits give high values
The whole screen tested about 2,300 compounds, of which about 20 (0.9%) were called active. Many of the other results were omitted from the sample, so actives are more common in it than they were.
The reply should contain only the number, in %.

Example entries and their recorded answers appear below.
                                   compound  reported_metric  unit_label  numeric_value
0    COc1ccc(-c2nnc3sc(NC(=O)C(C)C)nn23)cc1       activation           %          -0.23
1  CC1CCC(=NNC(=O)c2ccccc2O)CC1 (stereo unspecified)       activation           %          -3.51
2  COc1ccc(NS(=O)(=O)c2ccc(NC(=S)NC(C)=O)cc2)cc1       activation           %           3.81
3  CCOC(=O)c1cc(-c2ccccc2)sc1NC(=O)c1ccc(OC)c(OC)c1       activation           %          -1.86
4  COc1ccc(CNC(=O)C(NS(=O)(=O)c2ccc3c(c2)oc(=O)n3C)C(C)C)cc1 (stereo unspecified)       activation           %           -0.7

Below: the item to evaluate.
[in] Record request: activation value, item CC(=O)Cc1nsc(Nc2cccc(Cl)c2C)n1
[out] 6.59

----------
# ASSAY TARGET: Glucose-dependent insulinotropic receptor (Homo sapiens) (UniProt Q8TDV5)
# ASSAY OVERVIEW: off-target GPR119 activation – cell-based, PathHunter beta-arrestin, luminescence, set 2, counter-screen for GPR151 activator project, confirmation (AID 1508607);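 also: 0% = median of sample wells and 100% = wells given EA reagent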
# DETAILS: GPR119 PathHunter beta-arrestin cells, 90 min, at 11.2 µM, hits give high values
The campaign covered roughly 2,300 compounds. About 20 (0.9%) were called active. This is one part of a sample in which actives are shown more often than they occur.
REPORTED METRIC: activation (%)
The reply should contain only the number, in %.

Example entries and their recorded answers appear below.
>>> print(df.to_string())
                                   compound                              assay_target  numeric_value
0             O=C(NCCO)C(=O)Nc1cccc(Cl)c1Cl  Glucose-dependent insulinotropic receptor (Homo sapiens) (UniProt Q8TDV5)            1.5
1  O=C(C1CCCN1S(=O)(=O)c1ccc(Cl)cc1)N1CCOCC1 (stereo unspecified)  Glucose-dependent insulinotropic receptor (Homo sapiens) (UniProt Q8TDV5)            2.3
2  CN(C)c1ncc(/C=C2/C(=O)NC(=S)N(c3ccccc3F)C2=O)cn1  Glucose-dependent insulinotropic receptor (Homo sapiens) (UniProt Q8TDV5)           0.14
3  O=C(O)c1c(CNC2CCCc3ccccc32)c2ccccc2n1Cc1ccccc1 (stereo unspecified)  Glucose-dependent insulinotropic receptor (Homo sapiens) (UniProt Q8TDV5)          -2.12
4  CCOc1ccc(S(=O)(=O)N(CC(=O)NCCSc2ccccc2)c2ccccc2)cc1  Glucose-dependent insulinotropic receptor (Homo sapiens) (UniProt Q8TDV5)          -2.47
5  O=C(CN1C(=O)C(c2ccccc2)=NC12CCCC2)Nc1ccccc1  Glucose-dependent insulinotropic receptor (Homo sapiens) (UniProt Q8TDV5)          -0.92

[in] Record request: activation value, item CCN(CC)S(=O)(=O)c1ccc(-c2csc(=Nc3ccccc3OC)n2CC)cc1
[out] -1.01

[in] Record request: activation value, item CCc1nnc2c3c4c(sc3nc(CC)n12)CCCC4
[out] -1.48

[in] Record request: activation value, item CCC(C)OC(=O)C1=C(C)NC(=O)NC1c1cc(Br)ccc1OC (stereo unspecified)
[out] 1.91

[in] Record request: activation value, item Cc1cc2c(cc1C)C(c1cc([N+](=O)[O-])ccc1Cl)CC(=O)N2 (stereo unspecified)
[out] 0.43

[in] Record request: activation value, item O=C(Nc1ccccc1C(F)(F)F)c1cnn2c(C(F)(F)F)cc(-c3ccco3)nc12
[out] -0.72
